System: KM12 colon
Assay: NCI tumour cell line growth inhibition, 48 h
Provide the reported TGI of each item.

Use these answered entries as a reference point.
{"columns": ["compound", "TGI"],
 "data": [
  ["CC(=O)OI1NC(=O)c2ccccc21", "> 100 µM"],
  ["O=C1CN(c2ccccc2)Cc2nc(Cl)ccc2N1", "> 100 µM"]
]}

Hi there! I need TGI for each item below, if you can.
1. Clc1ccc(Cl)c(N=Nc2cc3c4c(c2)CCN4CCC3)c1
2. CCOC(=O)c1c2ccc(/C=C/c3ccccn3)ccc-2c(C(=O)OCC)c1N

*A*
> 10 µM
> 100 µM

Hi there! I need TGI for each item below, if you can.
1. O=[N+]([O-])c1ccc(C2=Nc3ccccc3S(=O)C(c3ccccc3)C2)cc1 (stereo not given)
2. CNC(=O)c1n[nH]n(C2CCCCC2)c1=S

*A*
41.3 µM
> 100 µM

Hi there! I need TGI for each item below, if you can.
1. N#CC(NNC(=O)Cc1ccccc1)c1cccc(O)c1 (stereo not given)
2. COc1ccc(-c2cc(=O)c3c(O)c(OC)c(OC)c(OC)c3o2)cc1OC
3. NS(=O)(=O)c1ccc(Nc2cc(-c3ccc(O)c(F)c3)[nH]n2)cc1
4. CC(C)Oc1c(C2(c3ccccc3)SCCCS2)c(=O)c1=O

*A*
["> 100 µM", "> 100 µM", "> 25 µM", "> 100 µM"]

* * *

Provide the reported TGI of each item.
Test system: SF-295 CNS
Experiment: NCI tumour cell line growth inhibition, 48 h

{"columns": ["compound", "TGI"],
 "data": [
  ["[N-]=[N+]=Nc1ccccc1-c1ccccc1[N+](=O)[O-]", "> 100 µM"],
  ["COc1cc2c(c(OC)c1OC)-c1ccc(NN(C(=O)c3ccccc3)C(=O)c3ccccc3)c(=O)cc1[C@@H](NC(C)=O)CC2 (tested in a mixture with another compound)", "> 100 µM"],
  ["CSc1ccc(C2=C(c3ccccc3)C(=O)OC2)cc1", "1.98 µM"]
]}

# context switch: different compound, same TGI
*Q* If you can, please state the reported TGI value of O=C(O/N=C1\CCCC\C1=C/c1ccccc1)c1ccc([N+](=O)[O-])cc1 .
*A* > 100 µM

* * *

Tested on: KM20L2 colon
Assay: NCI tumour cell line growth inhibition, 48 h
Provide the reported TGI of each item.

Hi there! I need TGI for each item below, if you can.
1. Nc1nncc2c1c(Br)cn2C1OC(CO)C(O)C1O (stereo unspecified)
2. CCOC(=O)c1c2ccc(/C=C/c3ccccn3)ccc-2c(C(=O)OCC)c1N
3. CC1CC2C3CCC4=CC(=O)C=CC4(C)C3(F)C(O)CC2(C)C1(O)C(=O)COP(=O)(O)O (stereo unspecified)
4. CCOc1ccccc1N=Nc1ccc2oc(=O)c(C(C)=O)cc2c1
5. COc1cc2c(c(OC)c1OC)-c1ccc(SC)c(=O)cc1[C@@H](NCc1ccc(F)cc1)CC2
6. Nc1nnc2c(-c3ccccc3)[nH]nc2n1

*A*
> 100 µM
> 100 µM
> 100 µM
> 100 µM
< 0.0075 µM
> 100 µM

* * *

Tested on: NCI-H522 lung
Assay: NCI tumour cell line growth inhibition, 48 h
measured.quantity: TGI

{"columns": ["compound", "TGI"],
 "data": [
  ["O=C1NC2NC3NC(=O)NC3NC2N1 (stereo unspecified)", "> 100 µM"],
  ["O=C1CN(c2ccccc2)Cc2nc(Cl)ccc2N1", "> 100 µM"],
  ["CC(C)(C)c1cc(C(=O)Nc2ccccc2C(=O)NCCN)cc(C(C)(C)C)c1", "3.82 µM"],
  ["Cn1c(=O)c2[nH]c(N=O)nc2n(C)c1=O", "> 100 µM"],
  ["CCCNC(=O)Nc1c([N+](=O)[O-])cc(C(F)(F)F)cc1[N+](=O)[O-]", "97.5 µM"]
]}

# context switch: different compound, same TGI
*Q* If you can, please state the reported TGI value of C[C@@H](CC(O)C(O)C(C)(C)O)C1CCC23CC12CCC1[C@@]2(C)CCC(O)C(C)(C)C2CC(OC2OC(CO)C(O)C(O)C2O)[C@]13C (stereo partly specified) .
*A* > 10 µM

* * *

Tested on: NCI-H226 lung
Assay: NCI tumour cell line growth inhibition, 48 h; in the data active = GI50 below about 0.43 µM; inactive = the rest
Thanks in advance; please answer with one of these: active, inactive

{"columns": ["compound", "label.value"],
 "data": [
  ["C#Cc1cccc(Nc2ncnc3cc(NC(=O)CCl)ccc23)c1", "inactive"]
]}

*Q* Per the records of this test, what outcome belongs to COc1cc(/C=C2\C(=O)N(Cc3ccc(Cl)cc3)c3ccccc32)cc(OC)c1OC ?
*A* inactive

*Q* Per the records of this test, what outcome belongs to COc1ccc2c(c1)OC(N)=C(C#N)C2c1cc(OC)c(OC)c(OC)c1 (stereo not given) ?
*A* active

*Q* Per the records of this test, what outcome belongs to CCN1CCN(c2nc(C)cc(N(CCCNc3ccnc4cc(Cl)ccc34)Cc3ccc4c(c3)OCO4)n2)CC1 ?
*A* inactive

*Q* Per the records of this test, what outcome belongs to COc1ccc(C(O)c2cc3c(N)c(C(=O)Nc4ccc(Cl)cc4)sc3nc2C)cc1 (stereo not given) ?
*A* inactive

* * *

Tested on: MOLT-4 leukemia
Assay: NCI tumour cell line growth inhibition, 48 h; in the data active means GI50 below about 0.43 µM; inactive means the rest
Thanks in advance; please answer with one of these: true = active, false = inactive

Known results for compounds:
{"columns": ["compound", "label.value"],
 "data": [
  ["Clc1nccc2c(-c3csc(-c4c[nH]c5ccc(Br)cc45)n3)c[nH]c12", "false"],
  ["CCN1CCN(c2nc(C)cc(N(CCCNc3ccnc4cc(Cl)ccc34)Cc3ccc4c(c3)OCO4)n2)CC1", "false"],
  ["O=C1Nc2ccc(Br)cc2C12CC(c1ccccc1)=NN2 (stereo not given)", "false"],
  ["COc1cc(/C=C/C(=O)c2cccc(-n3cc(-c4cc(OC)c(OC)c(OC)c4)[nH]c3=O)c2)cc(OC)c1OC", "false"],
  ["NC1NC=NC2C1N=CN2C1OC(CO)C2[O][Sn][O]C21 (stereo not given)", "false"]
]}

*Q* Per the records of this test, what outcome belongs to O=C1NC(=S)S/C1=C\c1cn(-c2ccccc2)nc1-c1ccccc1 ?
*A* false

*Q* Per the records of this test, what outcome belongs to O=C1[C@@H]2C(c3ccc(Br)cc3)=NO[C@@H]2C(=O)N1c1ccc(Cc2ccc(N3C(=O)[C@H]4C(c5ccc(Br)cc5)=NO[C@H]4C3=O)cc2)cc1 ?
*A* false

*Q* Per the records of this test, what outcome belongs to CCOCC1(COCC)CCC(c2[nH]ncc2CN(C)CCNC)CC1 ?
*A* false

*Q* Per the records of this test, what outcome belongs to COc1cc(-c2cc(/C=C/C(=O)c3ccc(F)c(F)c3)[nH]n2)cc(OC)c1OC ?
*A* false

*Q* Per the records of this test, what outcome belongs to O=C1NC(=NCc2ccccc2Cl)S/C1=C\c1ccc2ncccc2c1 ?
*A* false

*Q* Per the records of this test, what outcome belongs to O=C1CC(c2c[nH]c3ccc(F)cc23)C(=O)N1 (stereo not given) ?
*A* false

*Q* Per the records of this test, what outcome belongs to NC(N)=N/N=C/c1c(-c2ccsc2)nc2n1CCS2 ?
*A* false

* * *

System: NCI-H522 lung
Assay: NCI tumour cell line growth inhibition, 48 h
measured.quantity: GI50

{"columns": ["compound", "observed"],
 "data": [
  ["CCN1CCN(c2nc(C)cc(N(CCCNc3ccnc4cc(Cl)ccc34)Cc3ccc4c(c3)OCO4)n2)CC1", "1.66 µM"],
  ["NC1NC=NC2C1N=CN2C1OC(CO)C2[O][Sn][O]C21 (stereo not given)", "> 100 µM"],
  ["O=C1NC(=NCc2ccccc2Cl)S/C1=C\\c1ccc2ncccc2c1", "4.75 µM"],
  ["NC(=O)c1ccc2c(c1)-c1nc-2nc2[n-]c(nc3nc(nc4[n-]c(n1)c1ccc(C(N)=O)cc41)-c1ccc(C(N)=O)cc1-3)c1ccc(C(N)=O)cc21.[Co+2]", "> 50 µM"]
]}

# context switch: different compound, same GI50
*Q* If you can, please state the reported GI50 value of Cc1cc(=O)oc2ccc(OC/C=C3\CCC(=O)O3)cc12 .
*A* 1.65 µM

* * *

System: IGROV1 ovarian
Test: NCI tumour cell line growth inhibition, 48 h
Provide the reported TGI of each item.

Use these answered entries as a reference point.
{"columns": ["compound", "TGI"],
 "data": [
  ["C[N+](C)(CCCCCC[N+](C)(C)CCCN1C(=O)c2cccc3cccc(c23)C1=O)CCCN1C(=O)c2cccc3cccc(c23)C1=O", "> 100 µM"],
  ["Cn1c(=O)c2[nH]c(N=O)nc2n(C)c1=O", "> 100 µM"],
  ["CCOC(=O)[C@@H](C)C[C@H](Cc1ccccc1)NC(=O)c1csc([C@@H](C[C@H](C(C)C)N(C)C(=O)[C@@H](NC(=O)[C@H]2CCCCN2C)C(C)(C)CC)OC(C)=O)n1", "> 16.7 µM"],
  ["O=C1NC(=NCc2ccccc2Cl)S/C1=C\\c1ccc2ncccc2c1", "> 25 µM"],
  ["Cc1cc2ncn(-c3nc4ccccc4nc3C(C#N)S(C)(=O)=O)c2cc1C (centres undefined)", "> 100 µM"]
]}

Hi there! I need TGI for each item below, if you can.
1. CC(C)(C)OC(=O)NC1CCCC1C(=O)C1=CCCC1 (centres undefined)
2. CN(C)CCNC(=O)c1cccc2c1nc(-c1ccc(F)cc1)c1ccccc12
3. c1ccc(-c2oc(-c3ccccc3)c(CN3CCCCC3)c2CN2CCCCC2)cc1
4. C[C@]12C=CC(=O)C=C1CC[C@@H]1[C@@H]2CC[C@@]2(C)[C@H]1CC[C@]2(O)C(N)=O

*A*
> 100 µM
16.8 µM
14.4 µM
> 100 µM
